# reported Hepatotoxicity (acute); entries follow
Assay: Highest frequency of acute liver toxicity observed during clinical trials, expressed as a percentage. [column '% AIGUE' in source]
Conditions: human
# output: bare number, implied unit %

Some compounds with recorded Hepatotoxicity (acute):
- O=C(N[C@H](CO)[C@H](O)c1ccc([N+](=O)[O-])cc1)C(Cl)Cl: 7.7
- N[C@@H]1CON=C1O: 5.4

Recorded result, CCCCCN(C)CCC(O)(P(=O)(O)O)P(=O)(O)O , Hepatotoxicity (acute): 0

Recorded result, CCOC(=O)C1=C(C)NC(C)=C(C(=O)OCC)C1c1ccccc1/C=C/C(=O)OC(C)(C)C , Hepatotoxicity (acute): 0

Recorded result, O=C(O)c1ccccc1Nc1cccc(C(F)(F)F)c1 , Hepatotoxicity (acute): 0

Recorded values, source ChEMBL document CHEMBL3137667.
